tested on: KM12 colon; experiment: NCI tumour cell line growth inhibition, 48 h
RESULT_TYPE: GI50

>>> reported("O[N+]1=CC=CCC1=S.On1ccccc1=S.[Zn]")
"1.28 µM"
>>> reported("CO[C@H](C(=O)[C@@H](O)[C@@H](C)O)[C@@H]1Cc2cc3cc(O[C@H]4C[C@@H](O[C@H]5C[C@@H](O)[C@H](O)C(C)O5)[C@H](O)C(C)(O)O4)cc(O)c3c(O)c2C(=O)[C@H]1O[C@H]1C[C@@H](O[C@H]2C[C@@H](O[C@H]3C[C@@H](OC)[C@H](O)C(C)O3)[C@@H](O)C(C)O2)[C@H](O)C(C)O1 (stereo partly drawn)")
"0.786 µM"

# ---- query compound ----
Please state recorded GI50 (tested on KM12 colon) of `NC(=O)c1cccc(N2Cc3ccccc3OC3=C2C(=O)c2c(O)ccc(O)c2C3=O)c1`
1.88 µM

###

test system: SF-295 CNS; assay: NCI tumour cell line growth inhibition, 48 h
# Lookup of reported TGI keyed by entry

Completed entries (count: 6):
>>> reported("CCN(CC)CCN1C=CC(C)C(C(=O)O)C1C(N)=O (stereo not given)")
"> 100 µM"
>>> reported("Cn1ccnc1Sc1ccc(/C=N/NC(=O)c2ccccc2[N+](=O)[O-])cc1[N+](=O)[O-]")
"> 100 µM"
>>> reported("Clc1ccc(C2c3ccccc3-c3nccn32)c(Cl)c1 (stereo not given)")
"18.3 µM"
>>> reported("COc1ccc(/C(=N\\N=C(N)N)C(c2ccc(OC)cc2)C2OC(=O)c3ccccc32)cc1 (stereo not given)")
"> 100 µM"
>>> reported("CO[C@H](C(=O)[C@@H](O)[C@@H](C)O)[C@@H]1Cc2cc3cc(O[C@H]4C[C@@H](O[C@H]5C[C@@H](O)[C@H](O)C(C)O5)[C@H](O)C(C)(O)O4)cc(O)c3c(O)c2C(=O)[C@H]1O[C@H]1C[C@@H](O[C@H]2C[C@@H](O[C@H]3C[C@@H](OC)[C@H](O)C(C)O3)[C@@H](O)C(C)O2)[C@H](O)C(C)O1 (stereo not given in full)")
"> 16.8 µM"
>>> reported("CC(=O)OC/C=C(\\C)CCC(Br)C(C)(C)Br (stereo not given)")
"> 10 µM"

Name the reported TGI value associated with the compound `Nc1nc2c(nc(N)n2Cc2ccccc2)c(=O)[nH]1`
> 100 µM

###

Documented TGI across a set of compounds
tested on: U251 CNS; test: NCI tumour cell line growth inhibition, 48 h

>>> reported("CC1(C)C(=O)/C(=C\\c2ccccn2)C[C@]2(C)[C@H]3CC[C@@H]4[C@@H](C(=O)/C=C/c5ccccn5)CC[C@@]4(C)[C@]3(C)CC[C@@H]12")
"2.08 µM"
>>> reported("CC(C)NCC(O)c1cc(OCc2ccccc2)c(OCc2ccccc2)cc1NC(=O)CCC(=O)O (centres undefined)")
"18.2 µM"
>>> reported("Cc1cc(-c2no[n+]([O-])c2-c2cc(C)sc2S(C)(=O)=O)c(S(C)(=O)=O)s1")
"> 100 µM"
>>> reported("CCOC(=O)C1C(=O)C(C(=O)OCC)C(c2ccccc2)N(C)C1c1ccccc1 (centres undefined)")
"> 100 µM"

Entry CCOC(=O)c1cc2c(c3ccsc13)C1(C)CCC3c4ccc(OC)cc4CCC3C1C2 (centres undefined) has what TGI?
> 100 µM

Same for `NNC1=N/C(=C\c2ccccc2O)C(=O)N1`
> 100 µM

Note, next up: `CC(C)C(=O)N1C(=O)O[C@@H](c2ccccc2)[C@H]1C`
> 100 µM

Continue with CCN(CC)CCN1C=CC(C)C(C(=O)O)C1C(N)=O (centres undefined)
> 100 µM

Also C=CCC12CC(=O)CCC1CC(=O)C2 (centres undefined) , if possible.
> 100 µM

###

The following molecules are listed with their measured TGI values.
test system: K-562 leukemia; assay: NCI tumour cell line growth inhibition, 48 h

>>> reported("COC(=O)C1=C2SCc3ccc(cc3)CSC3=C(C(=O)OC)SC(=C(S2)S1)S3")
"> 100 µM"

# query: TGI of entry `O=C(Nc1ccn(CCOC(=O)c2ccccc2)c(=O)n1)c1ccccc1`
> 100 µM

Do the same for `COC(=O)[C@@H](C[C@H](Cc1ccccc1)NC(=O)c1csc([C@@H](C[C@H](C(C)C)N(C)C(=O)[C@@H](NC(=O)[C@H]2CCCCN2C)C(C)C)OC(C)=O)n1)NC(=O)OCc1ccccc1` please
> 3.18 µM

Then `C[C@@H]1CCC[C@]2(C)O[C@H]2CC[C@@](C)(O)[C@@H]2CC3=C(CO)C(=O)O[C@H]3[C@H]1O2` ?
> 50 µM

###

test system: KM12 colon; experiment: NCI tumour cell line growth inhibition, 48 h
RESULT_TYPE: TGI

These recorded examples may help you get a feel for the data.
>>> reported("COC(=O)c1cc2c3c(c1)Oc1cc(C(=O)OC)cc4c1C3c1c(cc(C(=O)OC)cc1O4)O2")
"> 49.7 µM"
>>> reported("CC(C)=CC1CCc2ccccc2N1S(=O)(=O)c1ccc(C)cc1 (configuration not stated)")
"6.16 µM"

Query TGI on KM12 colon for `O=C(O)c1cc(-c2ccc3c(O)ccc(O)c3c2)ccc1O`
43.2 µM

# repeat for Cc1ccc(C2=C(c3ccc(C)cc3)C3(c4ccc(C)cc4)[C@@H](C#N)[C@H](C#N)C2(c2ccc(C)cc2)S3=O)cc1 (some centres not stated)
> 100 µM

One more compound: `CC(C)(C)OC(=O)Nc1nnc(S(N)(=O)=O)s1`
> 100 µM

Thanks! And `Cc1cc(C)c2cc(N)c(Cl)nc2n1` ?
> 100 µM

Param item: `COc1cccc(/C=N/Nc2ncnc3c2cnn3-c2cccc(OC)c2)c1`
> 25 µM

And the next one, `CCOC(=O)N/N=C(\Cc1ccccc1)OCC` ?
> 100 µM

And then `c1ccc2cc(CN3CCC(C4CCN(Cc5ccc6ccccc6c5)CC4)CC3)ccc2c1` , what is it?
7.99 µM

Also need CCCCCCCCC1=CCC(CN(C)C)C1=O (configuration not stated) , thanks.
38 µM

Query `CCCCc1ccc(Nc2nc(=S)c3ncn(COCCO)c3[nH]2)cc1` next
> 100 µM

###

system: UACC-62 melanoma; experiment: NCI tumour cell line growth inhibition, 48 h; in the data active = GI50 below about 0.43 µM; inactive = the rest
Would you mind answering with one of these outcomes? t for active, f for inactive

>>> answer_label("CCN(CC)c1ccc(/C=C2\\SC(=O)C(Nc3nnc(-c4cccnc4SCc4ccccc4)o3)C2=O)cc1 (stereo not given)")
"f"
>>> answer_label("O=C(C[Si](CC(=O)c1cccc(C(F)(F)F)c1)CC(=O)c1cccc(C(F)(F)F)c1)c1cccc(C(F)(F)F)c1")
"f"
>>> answer_label("COc1ccc(S(=O)(=O)Nc2cc(/C=C\\c3cc(OC)c(OC)c(OC)c3)cc(OC)c2OC)cc1")
"t"
>>> answer_label("CC(=O)c1cc2c(c(O)c1C)C(=O)C(=O)c1c(O)cccc1-2")
"t"
>>> answer_label("C1CN1c1nc(N2CC2)nc(N2CC2)n1")
"f"
>>> answer_label("O=C(N/N=C\\c1c(O)ccc2ccccc12)C1CC1")
"f"

# fetch the recorded call for `CC1(C)C(=O)/C(=C\c2ccccn2)C[C@]2(C)[C@H]3CC[C@@H]4[C@@H](C(=O)/C=C/c5ccccn5)CC[C@@]4(C)[C@]3(C)CC[C@@H]12` here
f

Please answer likewise for CCOC(=O)c1cc2c(c3ccsc13)C1(C)CCC3c4ccc(OC)cc4CCC3C1C2 (stereo not given)
f

Similarly, `COc1cccc2c1-c1ccccc1C2=O` ?
f

###

system: MALME-3M melanoma; assay: NCI tumour cell line growth inhibition, 48 h
Quick list: TGI per entry.

Form entry - test system: MALME-3M melanoma; read-out: TGI; compound: `Cc1cccc(C)c1NC(=O)/C(Cc1nc2ccc([N+](=O)[O-])cc2[nH]c1=O)=N\NC(N)=O`
> 100 µM

Also `CCCc1cc(=O)oc2c3c(c4c(c12)OC(C)(C)CC4)O[C@H](C)[C@@H](C)[C@H]3O` , if possible.
37.9 µM

Now give it for `CCCCOC(=O)NC(Nc1ccc(S(N)(=O)=O)cc1)(C(F)(F)F)C(F)(F)F` too.
> 100 µM

Try this compound too: `Cn1c(=O)c2c(nc3sc4nc5ccccc5nc4n32)n(C)c1=O`
> 100 µM

Another compound to check: `O=C1CCC(O)=C1N=Nc1cc(Cl)cc(Cl)c1`
> 100 µM

What about `COc1cccc2c(Nc3ccc(S(=O)(=O)Nc4ncccn4)cc3)c3ccc([N+](=O)[O-])cc3nc12` ?
> 100 µM

Quick one: `COc1cccc([C@@]2(O)c3c(ccc(O)c3OC)[C@H]2OC)c1OC`
> 100 µM

Next compound: `CC(C)C(=O)N1C(=O)O[C@@H](c2ccccc2)[C@H]1C`
> 100 µM

Also check `NC(=O)c1cccc(N2Cc3ccccc3OC3=C2C(=O)c2c(O)ccc(O)c2C3=O)c1`
0.614 µM

Then what about the compound `COc1ccc(C(=O)/C=C2\C(=O)Nc3ccc(Br)cc32)cc1` ?
34.6 µM
